System: MCF7 breast
Experiment: NCI-60 one-dose screen, 48 h (100 = growth as untreated, 0 = no growth, -100 = all killed)
Details: 10 µM unless noted
This is part of a sample that, as a whole, favours compounds with a hit. Of some 83,000 tested, about 20% had one in any assay.
property-measured: growth (%)
Just the number please, in %, no unit attached.

See these solved cases before continuing.
Cc1ccc(NC(=S)N/C=C(\c2ccccc2)S(=O)Cc2ccccc2)c(C)c1 (stereo not drawn) | 90.3
COC(=O)c1ccccc1Cl | 99.6
O=C1c2ccccc2CN1c1ccccc1 | 106
O=c1[nH]c(=O)c2[nH]c(=O)[nH]c2[nH]1 | 92.1
CCn1c2ccc(N(C)C)cc2c2cc(N(C)C)ccc21 | 86.4
CC1(C)CC(=O)NC1=O | 93.6

Look up and report measured growth for this entry: "CC1=CC(=O)c2cccc(NC3=NCCO3)c21"
98.6

Look up and report measured growth for this entry: "CCNCc1ccccc1"
98.7

Look up and report measured growth for this entry: CCOP(C)(=O)/C(Cc1ccc(OC)c(OC)c1)=N\O (stereo not drawn)
104

Look up and report measured growth for this entry: COC(=O)C(Cc1cn(C(C)=O)c2ccccc12)P(=O)(OC)OC (stereo not drawn)
101

Look up and report measured growth for this entry: "CCOC(=O)CN1CCC(C(=O)OCC)CC1"
103

Look up and report measured growth for this entry: "CC(=O)/C(N=Nc1ccc(S(=O)(=O)c2ccc(N=N/C(C(C)=O)=C(/C)O)cc2)cc1)=C(\C)O"
96.1

Look up and report measured growth for this entry: "COc1ccc2oc3c(ccc[n+]3C)c(=O)c2c1"
100

----------
Test system: 786-0 renal
Experiment: NCI-60 one-dose screen, 48 h (100 = growth as untreated, 0 = no growth, -100 = all killed)
Details: 10 µM unless noted
Compounds without any hit were thinned out: in the full panel of roughly 83,000, 20% have a hit.
property-measured: growth (%)
Just the number please, in %, no unit attached.

See these solved cases before continuing.
O=[N+]([O-])c1ccc(N/N=C/C2CCCCCC2)c([N+](=O)[O-])c1 | 96.7
CCNCc1ccccc1 | 103
C/C=C/C(=O)OCCCCCCCCCCCC | 95
O=C(c1ccc(Cl)cc1)C1C(c2ccccc2)C1[N+](=O)[O-] (centres undefined) | 98.8
NC(=O)Cc1nc(O)cc(=O)[nH]1 | 98.4

Look up and report measured growth for this entry: "COc1ccc(COC=O)cc1"
103

Look up and report measured growth for this entry: CCCCCCC(C)CC1=C(O)c2ccccc2C(=O)C1=O (centres undefined)
27.1

Look up and report measured growth for this entry: "CCOC(=O)c1ccncc1"
106

Look up and report measured growth for this entry: "CC(=O)/C(N=Nc1ccc(S(=O)(=O)c2ccc(N=N/C(C(C)=O)=C(/C)O)cc2)cc1)=C(\C)O"
112

----------
System: TK-10 renal
Assay: NCI-60 one-dose screen, 48 h (100 = growth as untreated, 0 = no growth, -100 = all killed)
Conditions: 10 µM unless noted
About 83,000 compounds went through this panel and 20% of them were active in at least one assay; those are over-represented in the sample as a whole.
property-measured: growth (%)
Just the number please, in %, no unit attached.

O=C1c2ccccc2CN1c1ccccc1 | 94.3
CC(=O)c1cc2ccccc2o1 | 93.6
NCCSSC/C=C\CSSCCN | 107
COc1ccc(CCN=Cc2ccc(Cl)cc2)cc1OC | 107

Look up and report measured growth for this entry: "S=c1nn[nH]n1C1CCCCC1"
118

Look up and report measured growth for this entry: "CS(=O)(=O)c1nsc(N)n1"
101

----------
The entries below come with measured growth values attached.
Test system: SNB-75 CNS
Experiment: NCI-60 one-dose screen, 48 h (100 = growth as untreated, 0 = no growth, -100 = all killed)
Details: 10 µM unless noted
The panel holds about 83,000 compounds, 20% with a hit somewhere; the sample as a whole holds those more often.
Just the number please, in %, no unit attached.

See these solved cases before continuing.
CCC/C(=N/NC(N)=O)c1ccco1 | 75.2
CCOCCC(=O)O | 93.3
N#Cc1c[nH]n2ccnc12 | 103
CCOc1ccc(/C=C\C(=O)O)cc1 | 104
C/C=C(/C(=O)NC(N)=O)C(C)C | 120

Look up and report measured growth for this entry: "COC(=O)c1nc(N)nc(C(=O)OC)c1C(=O)c1ccc(F)cc1"
99.1

Look up and report measured growth for this entry: CC(NC(=O)CCl)c1ccccc1 (stereo not drawn)
85.6

Look up and report measured growth for this entry: "CN(C=O)c1ccccc1"
80.6

Look up and report measured growth for this entry: "NCCSSC/C=C\CSSCCN"
91.6

Look up and report measured growth for this entry: "O=[N+]([O-])c1ccc(N/N=C/C2CCCCCC2)c([N+](=O)[O-])c1"
117

Look up and report measured growth for this entry: "OCc1cccc(F)c1"
102

----------
System: HCC-2998 colon
Assay: NCI-60 one-dose screen, 48 h (100 = growth as untreated, 0 = no growth, -100 = all killed)
Conditions: 10 µM unless noted
The panel holds about 83,000 compounds, 20% with a hit somewhere; the sample as a whole holds those more often. Active and inactive are the calls of the source. Rule for the calls: active = growth percent below 10; inactive = the rest.
The entries below come with measured growth values attached.

See these solved cases before continuing.
O=c1[nH]c(=O)c2[nH]c(=O)[nH]c2[nH]1 | 107% (inactive)
COC(=O)c1nc(=S)[nH]c(C(=O)OC)c1C(=O)c1ccccc1 | 116% (inactive)
ON=C(C1CCCCC1)C1CCCCC1 | 109% (inactive)
N#Cc1c[nH]n2ccnc12 | 113% (inactive)
COc1ccc(COC=O)cc1 | 94.3% (inactive)

Look up and report measured growth for this entry: O=C1c2ccccc2C(c2ccccc2)C1c1ccccc1 (stereo not given)
95.4% (inactive)

Look up and report measured growth for this entry: "COc1cc(Cl)ccc1C"
105% (inactive)

Look up and report measured growth for this entry: OC1CCCN(Cc2ccccc2)C1 (stereo not given)
116% (inactive)

Look up and report measured growth for this entry: CC1CCC(=O)N1c1ccc(N)cc1 (stereo not given)
98.8% (inactive)

Look up and report measured growth for this entry: "Cc1c(Cl)cc(Cl)c(N)c1Cl"
113% (inactive)

Look up and report measured growth for this entry: "OCCS"
93.9% (inactive)

----------
Test system: SF-268 CNS
Assay: NCI-60 one-dose screen, 48 h (100 = growth as untreated, 0 = no growth, -100 = all killed)
Details: 10 µM unless noted
The panel holds about 83,000 compounds, 20% with a hit somewhere; the sample as a whole holds those more often.
property-measured: growth (%)
Just the number please, in %, no unit attached.

See these solved cases before continuing.
CC1NC(C)c2ccc3ccccc3c2O1 (stereo not drawn) | 101
CCCCC/C(C)=N\NC(N)=S | 88.2
CC1OS(=O)OC1C (stereo not drawn) | 110

Report its growth with SF-268 CNS as the test system: O=C(c1ccc(Cl)cc1)C1C(c2ccccc2)C1[N+](=O)[O-] (stereo not drawn)
98.1

Report its growth with SF-268 CNS as the test system: "CCCCCCCCCCCCCCCCC(=O)O"
102

----------
System: RXF 393 renal
Assay: NCI-60 one-dose screen, 48 h (100 = growth as untreated, 0 = no growth, -100 = all killed)
Conditions: 10 µM unless noted
Procedure: Cells are grown in 96 well plates and exposed to the test compound for 48 hours. Compounds are tested at a single concentration, which is 10^-5 M for most compounds. The reported endpoint is percent growth (GI% or GIPRCNT), where numbers from 0 - 100% represent growth inhibition, and numbers from -100% - 0 represent cell death. For example, a value of 40 represents 60% growth inhibition. A value of 0 means no net growth occurred over the course of the experiment. […]
The panel holds about 83,000 compounds, 20% with a hit somewhere; the sample as a whole holds those more often.
The entries below come with measured growth values attached.
Just the number please, in %, no unit attached.

COc1cc2oc3cc(=O)cc4oc(-c5ccccc5)cc(c2c2c1CCC(c1ccccc1)O2)c43 (stereo unspecified) | 78.6

Look up and report measured growth for this entry: Clc1ccc2c(c1)N(C1CCCN(Cc3ccccc3)C1)c1ccccc1S2 (stereo unspecified)
-15.7

Look up and report measured growth for this entry: "COC(=O)c1cc(C(=O)OC)cc([N+](=O)[O-])c1"
118

----------
Test system: IGROV1 ovarian
Assay: NCI-60 one-dose screen, 48 h (100 = growth as untreated, 0 = no growth, -100 = all killed)
Settings: 10 µM unless noted
Compounds without any hit were thinned out: in the full panel of roughly 83,000, 20% have a hit.
The entries below come with measured growth values attached.
Just the number please, in %, no unit attached.

See these solved cases before continuing.
CCOC(=O)c1ccc(C(=N)N)cc1 | 107
Cc1cc2ccccc2c2cc3ccccc3cc12 | 61.8
O=C1c2ccccc2CN1c1ccccc1 | 123
C/C=C/C(=O)OCCCCCCCCCCCC | 111

Please find the next compound below.
Look up and report measured growth for this entry: "Cn1c(N)c(N=O)c(=O)n(C)c1=O"
105
